Collected Baf3-cyPRLR proliferation IC50 values appear next to each entry.
study-system: cyno PRLR on Baf3-cyPRLR cells (cyno)
run-description: cell-based or functional assay
Respond numerically; units are µg/mL and should not be typed.

INSERT INTO results (binder, measure_unit, meas_value) VALUES
  ('chAb9 (antibody, human IgG1, kappa, V domains shown) VH: EVQLQQSGPELVRPGASVKISCKASGYSFTDYNMHWVKQSHGKSLEWIGYIYPYNGGAGYNQKFKSKATMNVGISSSTAYMELRSLTSEDSAVYYCARGDGNYVGDMDYWGQGTSVTVSS VL: DIQMTQSPASLSASVGETVTITCRASENIYSYLAWYQQKQGKSPQLLVYNAKTLAEGVPSRFSGSGSGTQFSLKINSLQPEDFGSYYCQHHSGTPFTFGSGTKLEIKT', 'µg/mL', 10.4);

What Baf3-cyPRLR proliferation IC50 value was documented for this binder, chAb6 (antibody, human IgG1, kappa, V domains shown, chimeric, murine variable and human G1/kappa constant regions) VH: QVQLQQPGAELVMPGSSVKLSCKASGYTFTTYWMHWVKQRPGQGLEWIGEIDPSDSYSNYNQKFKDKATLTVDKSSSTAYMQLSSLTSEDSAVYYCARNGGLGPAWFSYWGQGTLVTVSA VL: DIVMTQSQKFMSTTVGDRVSITCKASQYVGTAVAWYQQKPGQSPKLLIYSASNRYTGVPDRFTDSGSGTDFTLTISNLQSEDLADYFCQQYSSYPWTFGGGTKLEIKT ?
12.2

Data request, read-out Baf3-cyPRLR proliferation IC50, for Ab51 (antibody, human IgG1, kappa, V domains shown, humanized from Ab8; G1; also called Ab3 HC.1b and Ab3 LC.1a) VH: EVQLVQSGAEVKKPGASVKVSCKASGYTFTDYNIHWVRQAPGQGLEWIGYIYPNNDGTGYAQKLQGRVTMTVDTSTSTAYMELRSLRSDDTAVYYCARGDGNYVGDMDYWGQGTTVTVSS VL: DIQMTQSPSSLSASVGDRVTITCRASENIYSYLAWYQQKPGKPPKLLVYNAKTLAEGVPSRFSGSGSGTDFTLTISSLQPEDFATYYCQHHYATPFTFGQGTKLEIKR
100
